relative viability: recorded values
- System: NCI-H520
- Method notes: relative viability (nuclei count vs DMSO), 5 days (fraction); higher = more cells survive
- Conditions: first compound 158.11 µM
Respond with the number and no other words.

# Compound, Meas value
rows = [
    ("O=C(O)CCCCC(CCSCc1ccccc1)SCc1ccccc1 (stereo not drawn) [CPI-613] + Cc1nc(NC(=O)N2CCC[C@H]2C(N)=O)sc1-c1ccnc(C(C)(C)C(F)(F)F)c1 [Alpelisib] (partner 2 µM)", 0.403),
    ("O=C(O)CCCCC(CCSCc1ccccc1)SCc1ccccc1 (stereo not drawn) [CPI-613] + Cc1nc(Nc2ncc(C(=O)Nc3c(C)cccc3Cl)s2)cc(N2CCN(CCO)CC2)n1 [Dasatinib] (partner 0.075 µM)", 0.168),
]

# context switch: different compound, same relative viability
Problem: I have this compound here, O=C(O)CCCCC(CCSCc1ccccc1)SCc1ccccc1 (stereo not drawn) [CPI-613] + COc1cc2c(Oc3ccc(NC(=O)C4(C(=O)Nc5ccc(F)cc5)CC4)cc3F)ccnc2cc1OCCCN1CCOCC1 [Foretinib] (partner 0.25 µM) , and I need its recorded relative viability.
Result: 0.523

###

Measured relative viability of individual entries
- Test system: SW 900
- Method notes: relative viability (nuclei count vs DMSO), 5 days (fraction); higher = more cells survive
- Conditions: first compound 0.006325 µM
// response body must contain only the number

# example entries with known answers
# Compound, Measured endpoint, Meas value
records = [
    ("CC(=O)O[C@@]12CO[C@@H]1C[C@H](O)[C@@]1(C)C(=O)[C@H](O)C3=C(C)[C@@H](OC(=O)[C@H](O)[C@@H](NC(=O)OC(C)(C)C)c4ccccc4)C[C@@](O)([C@@H](OC(=O)c4ccccc4)[C@H]21)C3(C)C [Docetaxel] + COc1cccc2cc(-c3nc([C@H]4CC[C@H](C(=O)O)CC4)n4ncnc(N)c34)[nH]c12 [OSI-027] (partner 0.5 µM)", "relative viability", 0.18),
    ("CC(=O)O[C@@]12CO[C@@H]1C[C@H](O)[C@@]1(C)C(=O)[C@H](O)C3=C(C)[C@@H](OC(=O)[C@H](O)[C@@H](NC(=O)OC(C)(C)C)c4ccccc4)C[C@@](O)([C@@H](OC(=O)c4ccccc4)[C@H]21)C3(C)C [Docetaxel] + Cc1cc(Nc2cc(N3CCN(C)CC3)nc(Sc3ccc(NC(=O)C4CC4)cc3)n2)n[nH]1 [Tozasertib] (partner 0.1 µM)", "relative viability", 0.277),
]

Problem: Given CC(=O)O[C@@]12CO[C@@H]1C[C@H](O)[C@@]1(C)C(=O)[C@H](O)C3=C(C)[C@@H](OC(=O)[C@H](O)[C@@H](NC(=O)OC(C)(C)C)c4ccccc4)C[C@@](O)([C@@H](OC(=O)c4ccccc4)[C@H]21)C3(C)C [Docetaxel] + O=C(c1cc(Cc2n[nH]c(=O)c3ccccc23)ccc1F)N1CCN(C(=O)C2CC2)CC1 [Olaparib] (partner 8 µM) , state its recorded relative viability.
Result: 0.266

###

- System: NCI-H1755
- Method notes: relative viability (nuclei count vs DMSO), 5 days (fraction); higher = more cells survive
- Conditions: first compound 0.002 µM
Measured endpoint: relative viability
Returns: the value as a bare number; no unit string appended.

Problem: Query (compound): CC(=O)O[C@@]12CO[C@@H]1C[C@H](O)[C@@]1(C)C(=O)[C@H](O)C3=C(C)[C@@H](OC(=O)[C@H](O)[C@@H](NC(=O)OC(C)(C)C)c4ccccc4)C[C@@](O)([C@@H](OC(=O)c4ccccc4)[C@H]21)C3(C)C [Docetaxel] + O=C(CCCCCCC(=O)Nc1ccccc1)NO [Vorinostat] (partner 1 µM) ; field requested: relative viability
Result: 0.433

Values compiled from the supplement of paper PMC10307832.
